# test.system: T1, activated Protein C (APC) (human, UniProt P04070 43-197; P04070 212-461)
# T1 construct: also called human plasma APC
# T1 sequence (P04070 43-197, chain 1 of 2): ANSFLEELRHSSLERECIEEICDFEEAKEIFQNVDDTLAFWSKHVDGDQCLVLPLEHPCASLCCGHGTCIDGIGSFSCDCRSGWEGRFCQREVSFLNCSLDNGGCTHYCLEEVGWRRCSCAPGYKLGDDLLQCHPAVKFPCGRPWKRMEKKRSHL
# T1 sequence (P04070 212-461, chain 2 of 2): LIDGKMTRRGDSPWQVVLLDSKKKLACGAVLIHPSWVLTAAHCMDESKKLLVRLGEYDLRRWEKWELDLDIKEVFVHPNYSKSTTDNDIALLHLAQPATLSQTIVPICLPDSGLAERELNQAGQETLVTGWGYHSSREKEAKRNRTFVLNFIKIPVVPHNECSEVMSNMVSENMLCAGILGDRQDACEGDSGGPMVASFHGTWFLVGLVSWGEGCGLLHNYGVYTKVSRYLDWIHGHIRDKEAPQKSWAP
# assay.explanation: ratio of rate constants, APC over thrombin
assay.endpoint: inhibition of APC/thrombin (fold)
Only the number, expressed in fold, is required.

Provide inhibition of APC/thrombin value for the following binder: FL α1AT Pitts C232S P1′E (other, E. coli, purified; also called P1′.H8; P1′.F10) SDPQGDAAQKTDTSHHDQDHPTFNKITPNLAEFAFSLYRQLAHQSNSTNIFFSPVSIATAFAMLSLGTKADTHDEILEGLNFNLTEIPEAQIHEGFQELLRTLNQPDSQLQLTTGNGLFLSEGLKLVDKFLEDVKKLYHSEAFTVNFGDTEEAKKQINDYVEKGTQGKIVDLVKELDRDTVFALVNYIFFKGKWERPFEVKDTEEEDFHVDQVTTVKVPMMKRLGMFNIQHSKKLSSWVLLMKYLGNATAIFFLPDEGKLQHLENELTHDIITKFLENEDRRSASLHLPKLSITGTYDLKSVLGQLGITKVFSNGADLSGVTEEAPLKLSKAVHKAVLTIDEKGTEAAGAMFLEAIPREIPPEVKFNKPFVFLMIEQNTKSPLFMGKVVNPTQK
19.9

These entries and their values trace back to patent US20160311887A1.
